biological target: human RXFP1 (Homo sapiens); assay: RXFP1 Hu cAMP (Test A); type: cell-based; set-up: expressed in transfected cells; host or cells: Jump-In T-REx CHO-K1 cells (ThermoFisher), induced with 10 ng/ml doxycycline for 24 h; conditions: RXFP1 Hu cAMP; read-out: Test A EC50
Sequence (Q9HBX9 whole entry): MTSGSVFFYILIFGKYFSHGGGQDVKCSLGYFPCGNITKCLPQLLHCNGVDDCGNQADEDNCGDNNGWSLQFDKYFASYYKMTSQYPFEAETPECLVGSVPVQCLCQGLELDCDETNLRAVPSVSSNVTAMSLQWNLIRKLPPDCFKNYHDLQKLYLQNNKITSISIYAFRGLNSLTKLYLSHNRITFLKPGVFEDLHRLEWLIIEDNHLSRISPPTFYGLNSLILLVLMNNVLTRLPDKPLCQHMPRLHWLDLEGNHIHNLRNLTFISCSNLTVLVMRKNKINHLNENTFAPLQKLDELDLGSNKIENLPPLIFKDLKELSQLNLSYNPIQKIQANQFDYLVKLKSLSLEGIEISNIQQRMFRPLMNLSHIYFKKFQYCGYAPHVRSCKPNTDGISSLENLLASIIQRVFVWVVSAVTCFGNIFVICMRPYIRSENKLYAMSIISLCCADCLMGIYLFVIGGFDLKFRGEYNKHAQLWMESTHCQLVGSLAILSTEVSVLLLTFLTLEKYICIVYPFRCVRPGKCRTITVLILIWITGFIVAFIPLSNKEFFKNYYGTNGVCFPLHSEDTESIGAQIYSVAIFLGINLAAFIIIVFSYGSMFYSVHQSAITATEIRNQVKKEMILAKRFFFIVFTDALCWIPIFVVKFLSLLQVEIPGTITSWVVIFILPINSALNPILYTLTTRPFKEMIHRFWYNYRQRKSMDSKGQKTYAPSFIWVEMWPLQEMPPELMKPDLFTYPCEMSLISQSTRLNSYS
reported.property: EC50 (nM)

The following compounds have reported results that may help.
{"compound": "COc1cc(F)c(OC[C@H]2CC[C@@H](C(=O)O)CC2)cc1C(=O)N[C@@H]1[C@H]2CC[C@H](C2)[C@@H]1C(=O)Nc1cccc(S(=O)(=O)C(F)(F)F)c1 [Example 440]", "EC50 (nM)": 1200}
{"compound": "CCC(C)(C)NC(=O)c1ccc(Cl)cc1NC(=O)c1cc(O[C@H]2CC[C@@](C)(C(=O)O)CC2)c(C#N)cc1OC [Example 163]", "EC50 (nM)": 67}
{"compound": "CCOc1cc(F)c(O[C@H]2CC[C@@](C)(C(=O)O)CC2)cc1C(=O)N[C@@H]1[C@H]2CC[C@H](C2)[C@@H]1C(=O)NC12CC(F)(C1)C2 [Example 384]", "EC50 (nM)": 130}

A. COc1cc(-c2cc(C(=O)N[C@@H]3[C@H]4CC[C@H](C4)[C@@H]3C(=O)Nc3cccc(S(=O)(=O)C(F)(F)F)c3)c(OC)cc2F)ccc1CCC(=O)O [Example 259]
B. COc1cc(C#N)c(O[C@H]2CC[C@@](C)(C(=O)O)CC2)cc1C(=O)N[C@@H]1[C@H]2CC[C@H](C2)[C@@H]1C(=O)NCC(C)(F)F [Example 96]
stdin: Could you check which of A and B has a smaller value for EC50? API: response body contains the label of the selected item.
stdout: A

====

assay: Human Liver Microsomal Stability (Test C); assay type: in vitro ADME; conditions: human, liver microsomes
reported.property: microsomal CLint (µL/min/mg)

{"compound.structure.string": "COc1cc(F)c(O[C@H]2CC[C@@H](C(=O)O)CC2)cc1C(=O)N[C@@H]1[C@H]2CC[C@H](C2)[C@@H]1C(=O)N[C@H](C)C(C)(C)C", "microsomal CLint / µL/min/mg": 32}

I. COc1cc(F)c(O[C@H]2CC[C@@H](C(=O)O)CC2)cc1C(=O)N[C@@H]1[C@H]2CC[C@H](C2)[C@@H]1C(=O)Nc1ccc(F)c(OC(F)(F)F)c1
II. COc1cc(Br)c(O[C@H]2CC[C@@H](C(=O)O)CC2)cc1C(=O)N[C@@H]1[C@H]2CC[C@H](C2)[C@@H]1C(=O)Nc1cccc(S(=O)(=O)C(F)(F)F)c1
stdin: Which of the two items, I and II , has the greater recorded microsomal CLint? Refer to your chosen entry by its label in the reply.
stdout: II
(II: 57 µL/min/mg, I: 39 µL/min/mg)

====

target: human RXFP1 (Homo sapiens); assay: RXFP1 Hu cAMP (Test A); type: cell-based; set-up: expressed in transfected cells; host or cells: Jump-In T-REx CHO-K1 cells (ThermoFisher), induced with 10 ng/ml doxycycline for 24 h; conditions: RXFP1 Hu cAMP; read-out: Test A EC50
reported.property: EC50 (nM)

Recorded results for 3 molecules are shown here.
{"molecule": "COc1cc(F)c(-c2ccc(OCC(=O)O)cc2)cc1C(=O)N[C@@H]1[C@H]2CC[C@H](C2)[C@@H]1C(=O)Nc1cccc(S(=O)(=O)C(F)(F)F)c1", "EC50 / nM": 59}
{"molecule": "COc1cc(F)c(-c2ccc(C(N)=O)cc2)cc1C(=O)N[C@H]1[C@@H](C(=O)Nc2cccc(S(=O)(=O)C(F)(F)F)c2)[C@@H]2C=C[C@H]1C2", "EC50 / nM": 120}
{"molecule": "COc1cc(C#N)c(O[C@H]2CC[C@@](C)(C(=O)O)CC2)cc1C(=O)N[C@@H]1CCC[C@@H]1C(=O)NCC1(C)CCC1", "EC50 / nM": 100}

A. COc1cc(F)c(O[C@H]2CC[C@@](C)(C(=O)O)CC2)cc1C(=O)N[C@@H]1[C@H]2CC[C@H](C2)[C@@H]1C(=O)N[C@H](C)C1(C)CC1 (racemic)
B. COc1cc(C)c(O[C@H]2CC[C@@](C)(C(=O)O)CC2)cc1C(=O)N[C@@H]1[C@H]2CC[C@H](C2)[C@@H]1C(=O)NC12CC(F)(C1)C2
C. COc1cc(C#N)c(O[C@H]2CC[C@@](C)(C(=O)O)CC2)cc1C(=O)N[C@@H]1[C@H]2CC[C@H](C2)[C@@H]1C(=O)NCC1(CO)CCCC1
stdin: Parameters: sort_field (EC50), sort_dir (desc). I would appreciate it if you listed the labels in the requested order.
stdout: A, C, B
(A: 740 nM, C: 250 nM, B: 130 nM)
